# tested target: human M1 receptor (hCHRM1) (Homo sapiens)
# Construct: expressed in transfected cells
# protocol: Measurement of M1 receptor positive allosteric modulator (M1PAM) activity, calcium fluorescence in CHO-K1 cells
# Format: cell-based
# assay setup: 10 μM test compound with acetylcholine at EC20; 100% = acetylcholine 1 μM, 0% = DMSO
What activity (%) at 10 μM was measured for each of the following?
Quick note: give the figure in %, leave out the unit.

Form field: reported activity (%) at 10 μM of CCC(F)(F)COc1nccc2c1C(=O)N(Cc1ccc(-c3cnn(CC(F)F)c3)cc1F)C2
107

Form field: reported activity (%) at 10 μM of O=C1c2c(ccnc2OCC(F)F)CN1Cc1ccc(-c2cnn(CC(F)F)c2)cc1
91

Form field: reported activity (%) at 10 μM of Cn1cc(-c2ccc(CN3Cc4ccnc(OCC(C)(F)F)c4C3=O)cc2)nn1
92

Form field: reported activity (%) at 10 μM of Cn1cc(-c2ccc(CN3Cc4ccnc(OCC(F)(F)F)c4C3=O)c(F)c2)cn1
101

Form field: reported activity (%) at 10 μM of Cn1cc(-c2ccc(CN3Cc4ccnc(OCCC(F)(F)F)c4C3=O)c(F)c2)nn1
111

Form field: reported activity (%) at 10 μM of Cc1nn(C)cc1-c1ccc(CN2Cc3ccnc(OCC(F)(F)F)c3C2=O)c(F)c1
101

Form field: reported activity (%) at 10 μM of CC(F)(F)COc1nccc2c1C(=O)N(Cc1ccc(-c3cnn(CC(F)(F)F)c3)cc1)C2
97

Form field: reported activity (%) at 10 μM of Cc1nn(C)cc1-c1ccc(CN2Cc3ccnc(OCC(C)(C)F)c3C2=O)c(F)c1
95

Form field: reported activity (%) at 10 μM of Cc1nn(C)cc1-c1ccc(CN2Cc3ccnc(OCC(C)(F)F)c3C2=O)c(F)c1
94

Form field: reported activity (%) at 10 μM of CCC(F)(F)COc1nccc2c1C(=O)N(Cc1ccc(-c3cnn(CC(F)(F)F)c3)cc1)C2
94

====

# tested target: human M1 receptor (hCHRM1) (Homo sapiens, UniProt P11229)
# protocol: Measurement of M1 receptor positive allosteric modulator (M1PAM) activity, calcium fluorescence in CHO-K1 cells
# assay setup: inflection point in the concentration-dependent curve; acetylcholine at EC20 (final 0.6-0.8 nM); CHO-K1 cells expressing human M1; Fluo-4, FLIPRtetra; read-out: IP value
What EC50 was measured for each of the following?
Quick note: give the figure in nM, leave out the unit.

Form field: reported EC50 of CCC(F)(F)COc1nccc2c1C(=O)N(Cc1ccc(-c3cn(C)nc3C)cc1F)C2 [Example 7]
9.1

Form field: reported EC50 of Cn1cc(-c2ccc(CN3Cc4ccnc(OCC(C)(F)F)c4C3=O)c(F)c2)cn1 [Example 86]
21

Form field: reported EC50 of CC(F)(F)COc1nccc2c1C(=O)N(Cc1ccc(-c3cnn(CC(F)(F)F)c3)cc1)C2 [Example 12]
59

Form field: reported EC50 of Cn1cc(-c2ccc(CN3Cc4ccnc(OCC(C)(F)F)c4C3=O)cc2)nn1 [Example 107]
72

====

What EC50 was measured for each of the following?
# tested target: human M1 receptor (hCHRM1) (Homo sapiens, UniProt P11229)
# Construct: expressed in transfected cells
# Sequence (P11229 1-460): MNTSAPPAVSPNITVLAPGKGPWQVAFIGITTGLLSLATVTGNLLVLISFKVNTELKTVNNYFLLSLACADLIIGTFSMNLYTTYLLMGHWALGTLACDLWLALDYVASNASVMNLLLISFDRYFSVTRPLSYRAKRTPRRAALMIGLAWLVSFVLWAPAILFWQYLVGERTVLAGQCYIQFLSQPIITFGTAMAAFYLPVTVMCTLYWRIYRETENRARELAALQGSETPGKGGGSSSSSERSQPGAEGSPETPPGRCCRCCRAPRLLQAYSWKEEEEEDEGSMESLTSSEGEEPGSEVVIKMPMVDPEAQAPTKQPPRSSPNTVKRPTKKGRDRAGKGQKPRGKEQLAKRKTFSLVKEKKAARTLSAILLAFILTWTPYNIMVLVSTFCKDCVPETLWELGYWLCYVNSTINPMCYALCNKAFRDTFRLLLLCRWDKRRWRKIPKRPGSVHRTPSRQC
# protocol: Measurement of M1 receptor positive allosteric modulator (M1PAM) activity, calcium fluorescence in CHO-K1 cells
# Assay type: cell-based
# assay setup: inflection point in the concentration-dependent curve; acetylcholine at EC20 (final 0.6-0.8 nM); CHO-K1 cells expressing human M1; Fluo-4, FLIPRtetra; read-out: IP value
Quick note: give the figure in µM, leave out the unit.

Form field: reported EC50 of CCC(F)(F)COc1nccc2c1C(=O)N(Cc1ccc(-c3cn[nH]c3)cc1)C2
0.059

Form field: reported EC50 of CCn1cc(-c2ccc(CN3Cc4ncnc(OCC(C)(C)F)c4C3=O)cc2)cn1
0.01

Form field: reported EC50 of CCn1cc(-c2ccc(CN3Cc4ncnc(OCC(F)(F)F)c4C3=O)c(F)c2)cn1
0.027

Form field: reported EC50 of Cc1nn(C)cc1-c1ccc(CN2Cc3ccnc(OCC(C)(C)F)c3C2=O)c(F)c1
0.017

Form field: reported EC50 of CCn1cc(-c2ccc(CN3Cc4ncnc(OCC(F)F)c4C3=O)cc2)cn1
0.031

Form field: reported EC50 of CCn1cc(-c2ccc(CN3Cc4ncnc(OCC(F)(F)F)c4C3=O)cc2)cn1
0.046

Form field: reported EC50 of Cc1cc(-c2ccc(CN3Cc4ncnc(OCC(F)(F)F)c4C3=O)cc2)ccn1
0.023

Form field: reported EC50 of CCC(F)(F)COc1nccc2c1C(=O)N(Cc1ccc(-c3cnn(CC(F)F)c3)cc1F)C2
0.017

Form field: reported EC50 of CCn1cc(-c2ccc(CN3Cc4ccnc(OCC(C)(F)F)c4C3=O)cc2)cn1
0.072

Form field: reported EC50 of Cc1nn(C)cc1-c1ccc(CN2Cc3ncnc(OCC(C)(F)F)c3C2=O)cc1
0.028

Form field: reported EC50 of O=C1c2c(ccnc2OCC(F)F)CN1Cc1ccc(-c2cnn(CC(F)F)c2)cc1F
0.021

Form field: reported EC50 of O=C1c2c(ccnc2OCC(F)F)CN1Cc1ccc(-c2cnn(CC(F)(F)F)c2)cc1
0.091

Form field: reported EC50 of CCn1cc(-c2ccc(CN3Cc4ccnc(OCC(F)(F)CC)c4C3=O)cc2)cn1
0.068

Form field: reported EC50 of Cc1nn(C)cc1-c1ccc(CN2Cc3ncnc(OCC(F)(F)F)c3C2=O)c(F)c1
0.022

Form field: reported EC50 of Cn1cc(-c2ccc(CN3Cc4ccnc(OCC(C)(C)F)c4C3=O)c(F)c2)cn1
0.032

Form field: reported EC50 of Cn1cc(-c2ccc(CN3Cc4ccnc(OCC(F)F)c4C3=O)c(F)c2)nn1
0.043

Form field: reported EC50 of Cc1nn(C)cc1-c1ccc(CN2Cc3ncnc(OCC(F)F)c3C2=O)c(F)c1
0.009

====

# tested target: human M1 receptor (hCHRM1) (Homo sapiens)
# Construct: expressed in transfected cells
# protocol: Measurement of M1 receptor positive allosteric modulator (M1PAM) activity, calcium fluorescence in CHO-K1 cells
# Format: cell-based
# assay setup: inflection point in the concentration-dependent curve; acetylcholine at EC20 (final 0.6-0.8 nM); CHO-K1 cells expressing human M1; Fluo-4, FLIPRtetra; read-out: IP value
pEC50: −log10 of the molar value.
Please mark YES if the recorded pEC50 is equal to or greater than 7, and NO if it falls below.

I'd appreciate it if you could say whether CC(F)(F)COc1nccc2c1C(=O)N(Cc1ccc(-c3ccoc3)cc1F)C2 [Example 21] has pEC50 at least equal to 7.
NO

I'd appreciate it if you could say whether CCC(F)(F)COc1nccc2c1C(=O)N(Cc1ccc(-c3cnnc(C)c3)cc1)C2 [Example 19] has pEC50 at least equal to 7.
NO

I'd appreciate it if you could say whether CCC(F)(F)COc1ncnc2c1C(=O)N(Cc1ccc(-c3cn(C)nc3C)cc1F)C2 [Example 74] has pEC50 at least equal to 7.
YES

I'd appreciate it if you could say whether CCC(F)(F)COc1nccc2c1C(=O)N(Cc1ccc(-c3cnn(C)c3)cc1F)C2 [Example 92] has pEC50 at least equal to 7.
YES

I'd appreciate it if you could say whether CCC(F)(F)COc1ncnc2c1C(=O)N(Cc1ccc(-c3cnn(CC(F)(F)F)c3)cc1)C2 [Example 69] has pEC50 at least equal to 7.
YES

I'd appreciate it if you could say whether Cn1cc(-c2ccc(CN3Cc4ccnc(OCC(F)(F)F)c4C3=O)c(F)c2)cn1 [Example 87] has pEC50 at least equal to 7.
YES

I'd appreciate it if you could say whether CCn1cc(-c2ccc(CN3Cc4ncnc(OCC(C)(F)F)c4C3=O)cc2)cn1 [Example 1] has pEC50 at least equal to 7.
YES

I'd appreciate it if you could say whether CCn1cc(-c2ccc(CN3Cc4ncnc(OCC(C)(F)F)c4C3=O)c(F)c2)cn1 [Example 3] has pEC50 at least equal to 7.
YES

I'd appreciate it if you could say whether CCn1cc(-c2ccc(CN3Cc4ccnc(OCC(F)F)c4C3=O)c(F)c2)cn1 [Example 58] has pEC50 at least equal to 7.
YES

I'd appreciate it if you could say whether Cn1cc(-c2ccc(CN3Cc4ccnc(OCC(F)(F)F)c4C3=O)c(F)c2)nn1 [Example 114] has pEC50 at least equal to 7.
YES

I'd appreciate it if you could say whether CC(F)(F)COc1nccc2c1C(=O)N(Cc1ccc(-c3cnn(CC(F)F)c3)cc1)C2 [Example 13] has pEC50 at least equal to 7.
YES

I'd appreciate it if you could say whether Cc1nn(C)cc1-c1ccc(CN2Cc3ncnc(OCC(C)(F)F)c3C2=O)c(F)c1 [Example 23] has pEC50 at least equal to 7.
YES

I'd appreciate it if you could say whether CCn1cc(-c2ccc(CN3Cc4ccnc(OCC(F)(F)CC)c4C3=O)c(F)c2)cn1 [Example 60] has pEC50 at least equal to 7.
YES
